Here the recorded bioavailability is given for each entry.
# experimental_details: Oral bioavailability (%F) following oral vs intravenous administration in rats
# Type: in vivo, male Sprague-Dawley rats
# cond: male, Sprague-Dawley, rat, plasma, po, administered as suspension of the sodium salt form, read-out: % F, salt suspension

| molecule | bioavailability |
| --- | --- |
| CCCNC(=O)Nc1ncnc2c1ncn2C1OC(COc2ccccc2C(=O)O)C2O[C@H](c3ccc(F)cc3)OC21 (some centres unmarked) [Compound 15] | 29.5 to 29.9% |

The record that follows has no bioavailability shown yet.
Please give the documented bioavailability of CCNC(=O)Nc1ncnc2c1ncn2C1OC(COc2cc(OC)ccc2C(=O)O)C2OC(c3ccc(F)cc3)OC21 (centres unmarked) [Compound 14] 21.5 to 22.1%

* * *

# experimental_details: Oral bioavailability (%F) following oral vs intravenous administration in rats
# Format: in vivo, male Sprague-Dawley rats
# cond: male, Sprague-Dawley, rat, plasma, po, administered as suspension of the free acid form, read-out: % F, free acid suspension
reported_endpoint: bioavailability

| compound | bioavailability |
| --- | --- |
| CCNC(=O)Nc1ncnc2c1ncn2C1OC(COc2ccccc2C(=O)O)C2O[C@H](/C=C/c3ccccc3)OC21 (some centres unmarked) [Compound 1] | 8 to 13% |

Please give the documented bioavailability of CCCNC(=O)Nc1ncnc2c1ncn2C1OC(COc2ccccc2C(=O)O)C2O[C@H](c3ccc(F)cc3)OC21 (some centres unmarked) [Compound 15] 14.3 to 14.6%

* * *

# System: washed human platelets
# experimental_details: Inhibition of ADP-induced platelet aggregation in washed human platelets
# Assay type: cell-based
# cond: Homo sapiens, Platelet, read-out: PLATELET DATA IC50 Washed Platelets, washed human platelets; ADP agonist challenge typically 1-5 μM; average of two experiments or more
# Experimental: Isolation of Platelets: Human blood is obtained from informed healthy adult volunteers. Blood is collected into one-sixth volume of acid/citrate/dextrose (ACD) buffer (85 mM sodium citrate, 65 mM citric acid, and 110 mM glucose). […] Aggregation Studies: ADP-induced platelet aggregation is determined by measuring the transmission of light through a 0.5 ml suspension of stirred (1000 rpm) washed platelets in a lumi-aggregometer at 37° C. […]
pIC50: −log10 of the molar value.
reported_endpoint: pIC50

| compound | numeric_readout |
| --- | --- |
| CCNC(=O)Nc1ncnc2c1ncn2C1OC(COc2cc(OC)ccc2C(=O)O)C2O[C@H](/C=C/c3ccccc3)OC21 (stereo partly shown) [Compound 3] | 6.39 |
| CCNC(=O)Nc1ncnc2c1ncn2C1OC(COc2c(OC)cccc2C(=O)O)C2O[C@H](/C=C/c3ccccc3)OC21 (stereo partly shown) [Compound 2] | 6.55 |
| CCNC(=O)Nc1ncnc2c1ncn2C1OC(COc2ccccc2CC(=O)O)C2OC(c3ccc(F)cc3)OC21 (stereo not shown) [Compound 11] | 6.24 |
| CCNC(=O)Nc1ncnc2c1ncn2C1OC(COc2ccccc2C(=O)O)C2O[C@H](c3ccc(F)cc3)OC21 (stereo partly shown) [Compound 12] | 6.70 |
| CCNC(=O)Nc1ncnc2c1ncn2C1OC(COc2ccc(F)cc2C(=O)O)C2O[C@H](/C=C/c3ccccc3)OC21 (stereo partly shown) [Compound 4] | 6.98 |

A. CCNC(=O)Nc1ncnc2c1ncn2C1OC(COc2ccccc2CC(=O)O)C2O[C@H](/C=C/c3ccccc3)OC21 (stereo partly shown) [Compound 6]
B. CCNC(=O)Nc1ncnc2c1ncn2C1OC(COc2cccc(F)c2C(=O)O)C2OC(/C=C/c3ccccc3)OC21 (stereo not shown) [Compound 8]
Identify the entry with the larger pIC50. Options: A and B To answer, give the label that identifies your chosen option. B

P. CCNC(=O)Nc1ncnc2c1ncn2C1OC(COc2ccc(OC)cc2C(=O)O)C2O[C@H](/C=C/c3ccccc3)OC21 (stereo partly shown) [Compound 9]
Q. CCNC(=O)Nc1ncnc2c1ncn2C1OC(COc2cc(F)ccc2C(=O)O)C2O[C@H](/C=C/c3ccccc3)OC21 (stereo partly shown) [Compound 7]
R. CCCNC(=O)Nc1ncnc2c1ncn2C1OC(COc2ccccc2C(=O)O)C2O[C@H](c3ccc(F)cc3)OC21 (stereo partly shown) [Compound 15]
Sequence the entries by pIC50, beginning with the highest number. To answer, write out the labels according to the requested order. R, Q, P

P. CCNC(=O)Nc1ncnc2c1ncn2C1OC(COc2ccc(C)cc2C(=O)O)C2O[C@H](/C=C/c3ccccc3)OC21 (stereo partly shown) [Compound 5]
Q. CCNC(=O)Nc1ncnc2c1ncn2C1OC(COc2ccccc2C(=O)O)C2O[C@H](/C=C/c3ccccc3)OC21 (stereo partly shown) [Compound 1]
Just tell me: smaller pIC50 value, P or Q ? To answer, give the label that identifies your chosen option. P
(P: 6.27, Q: 6.50)

* * *

Here the recorded bioavailability is given for each entry.
# experimental_details: Oral bioavailability (%F) following oral vs intravenous administration in rats
# Format: in vivo, male Sprague-Dawley rats
# cond: male, Sprague-Dawley, rat, plasma, po, administered as solution of the sodium salt form, read-out: % F, salt solution

Please give the documented bioavailability of CCCNC(=O)Nc1ncnc2c1ncn2C1OC(COc2ccccc2C(=O)O)C2O[C@H](c3ccc(F)cc3)OC21 (stereo partly drawn) [Compound 15] ~53%

Please give the documented bioavailability of CCNC(=O)Nc1ncnc2c1ncn2C1OC(COc2ccccc2C(=O)O)C2O[C@H](/C=C/c3ccccc3)OC21 (stereo partly drawn) [Compound 1] ~39%

Please give the documented bioavailability of CCNC(=O)Nc1ncnc2c1ncn2C1OC(COc2cc(OC)ccc2C(=O)O)C2OC(c3ccc(F)cc3)OC21 (stereo not drawn) [Compound 14] ~44%
